# literature pull: CRBN-DDB1 (Homo sapiens) pIC50
pIC50: −log10 of the molar value.

| molecule | censor-symbol | pIC50 |
| --- | --- | --- |
| Cn1nccc1-c1ccccc1CN1CCN(Cc2ccc3c(c2)CN(C2CCC(=O)NC2=O)C3=O)CC1 (stereo not shown) | = | 6.21 |
| O=C1CCC(N2Cc3cc(C(=O)N4CCN(CC5=C(c6ccc(F)cc6)CCCC5)CC4)ccc3C2=O)C(=O)N1 (stereo not shown) | = | 5.99 |
| O=C1CCC(N2C(=O)c3ccc(CN4CCN(Cc5ccc(-c6ccc(Cl)cc6)cc5)CC4)cc3C2=O)C(=O)N1 (stereo not shown) | = | 5.78 |
| CC1(C)CCC(C(=O)N2CCCN(Cc3ccc4c(c3)CN(C3CCC(=O)NC3=O)C4=O)CC2)=C(c2ccc(Cl)cc2)C1 (stereo not shown) | = | 6.01 |
| O=C1CCC(N2Cc3cc(SC4CN(C(c5ccccc5F)c5ccccc5F)C4)ccc3C2=O)C(=O)N1 (stereo not shown) | > | 6.30 |
| Cc1nc2cccc(CN3CCNCC3)c2c(=O)n1C1CCC(=O)NC1=O (stereo not shown) | = | 5.74 |
| CC1(C)CCC(C(=O)N2CCC3(CC2)CN(Cc2ccc4c(c2)CN(C2CCC(=O)NC2=O)C4=O)C3)=C(c2ccc(F)cc2)C1 (stereo not shown) | = | 6.31 |
